experiment: plasma pharmacokinetics in patients; format: in vivo, human; details: human, in vivo, po, 180 mg
measured attribute: half-life (h)
Give the quantity in h, number only.

// query half-life value for entry CC1=C2C[C@H]3[C@@H](CC[C@@H]4C[C@H](NS(C)(=O)=O)CC[C@@]43C)[C@@H]2CC[C@@]2(C1)O[C@@H]1C[C@H](C)CN[C@H]1[C@H]2C 16.1

###

assay: plasma pharmacokinetics in patients; format: in vivo, human; settings: human, in vivo, po, 160 mg
measured attribute: half-life (h)
Give the quantity in h, number only.

// query half-life value for entry CC1=C2C[C@H]3[C@@H](CC[C@@H]4C[C@H](NS(C)(=O)=O)CC[C@@]43C)[C@@H]2CC[C@@]2(C1)O[C@@H]1C[C@H](C)CN[C@H]1[C@H]2C 17.3

###

experiment: plasma pharmacokinetics in patients; format: in vivo, human; conditions: human, in vivo, po, 130 mg
measured attribute: half-life (h)
Give the quantity in h, number only.

// query half-life value for entry CC1=C2C[C@H]3[C@@H](CC[C@@H]4C[C@H](NS(C)(=O)=O)CC[C@@]43C)[C@@H]2CC[C@@]2(C1)O[C@@H]1C[C@H](C)CN[C@H]1[C@H]2C 19.3

###

test: plasma pharmacokinetics in patients; type: in vivo, human; settings: human, in vivo, po, 200 mg
measured attribute: half-life (h)
Give the quantity in h, number only.

// query half-life value for entry CC1=C2C[C@H]3[C@@H](CC[C@@H]4C[C@H](NS(C)(=O)=O)CC[C@@]43C)[C@@H]2CC[C@@]2(C1)O[C@@H]1C[C@H](C)CN[C@H]1[C@H]2C 12.7

###

test: plasma pharmacokinetics in patients; type: in vivo, human; settings: human, plasma, po, Tmax (slow absorption), overall summary, patients
measured attribute: Tmax

// query Tmax value for entry CC1=C2C[C@H]3[C@@H](CC[C@@H]4C[C@H](NS(C)(=O)=O)CC[C@@]43C)[C@@H]2CC[C@@]2(C1)O[C@@H]1C[C@H](C)CN[C@H]1[C@H]2C [IPI-926] 2 to 8 h

Measured values drawn from paper PMC3694426 for this set.
